Below: a set of entries, each annotated with reported Kd.
Target: T1, hOX40-his (human, UniProt P43489 29-216)
T1 construct: range 1-216; Made in HEK293; The stated range starts at residue 1 (holds the signal peptide of the entry); no cleavage site stated; not shown: his tag
T1 sequence (looked up): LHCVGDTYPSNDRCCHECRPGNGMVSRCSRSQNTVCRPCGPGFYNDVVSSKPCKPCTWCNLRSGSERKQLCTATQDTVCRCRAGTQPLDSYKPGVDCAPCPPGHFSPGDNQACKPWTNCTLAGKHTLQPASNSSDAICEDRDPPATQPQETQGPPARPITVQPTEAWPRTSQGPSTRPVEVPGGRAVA
Test: BIACORE, antibody on the probe, 20 nM OX40-his
Your answer is read as nM, so omit the unit and give the number.

Solved cases (3 shown):
BINDER: Antibody M (antibody, human IgG1, kappa, V domains shown, also called antibody No. 12; anti-OX40 antibody (antibody M)) VH: QVQLVESGGGVVQPGESLRLSCAASGFTFSSYGMHWVRQAPGKGLEWVAVIWEDGSNQYYADSVKGRFTISRDNSKNTLYLQMNSLRAEDTAVYYCAKDNQDTSPDVGIDYWGQGTLVTVSS VL: DIQMTQSPSSLSASVGDRVTITCRASQNISPFLNWYQQKPGKAPKLLIYAAVGLQSGVPSRFSGSGSGTDFTLTISSLQPEDFATYYCQQYTDYPLTFGGGTKVEIKR
TEST READOUT: Kd
RESULT UNIT: nM
REPORTED VALUE: 0.16
--
BINDER: T + VG (antibody, human IgG1, kappa, V domains shown) VH: QVQLEESGGGVVQPGESLRLSCAASGFTFSSYGMHWVRQAPGKGLEWVAVISYDGSNQYYADSVKGRFTISRDNSKNTLYLQMNSLRAEDTAVYYCAKDNQDTSPDVGIDYWGQGTLVTVSS VL: DIQMTQSPSSLSASVGDTVTITCRASQNISPFLNWYQQKPGKAPKLLIYAAVGLQSGVPSRFSGSGSGTDFTLTISSLQPEDFATYYCQQYNSYPLTFGGGTKVEIKR
TEST READOUT: Kd
RESULT UNIT: nM
REPORTED VALUE: 4.54
--
BINDER: VH + VGTD (antibody, human IgG1, kappa, V domains shown) VH: QVQLEESGGGVVQPGESLRLSCAASGFTFSSYGMHWVRQAPGKGLEWVAVISYDGSNQYYADSVKGRFTISRDNSKNTLYLQMNSLRAEDTAVYYCAKDNQDSSPDVGIDYWGQGTLVTVSS VL: DIQMTQSPSSLSASVGDTVTITCRASQNISPFLNWYQQKPGKAPKLLIYAAVGLQSGVPSRFSGSGSGTDFTLTISSLQPEDFATYYCQQYTDYPLTFGGGTKVEIKR
TEST READOUT: Kd
RESULT UNIT: nM
REPORTED VALUE: 0.565

Attention now shifts to the item below.
Exercise: Please give measured Kd of the following entry: WEST + VL (antibody, human IgG1, kappa, V domains shown) VH: QVQLEESGGGVVQPGESLRLSCAASGFTFSSYGMHWVRQAPGKGLEWVAVIWEDGSNQYYADSVKGRFTISRDNSKNTLYLQMNSLRAEDTAVYYCAKDNQDTSPDVGIDYWGQGTLVTVSS VL: DIQMTQSPSSLSASVGDTVTITCRASQNISPFLNWYQQKPGKAPKLLIYAASSLQSGVPSRFSGSGSGTDFTLTISSLQPEDFATYYCQQYNSYPLTFGGGTKVEIKR
Solution: 1.93
